- assayName: self-splicing fitness, log relative to wild type (ln ratio); higher = more splicing; Tetrahymena group I intron in knt gene, E. coli kanamycin selection, DiMSum; sequences stand for … in CUCUCU…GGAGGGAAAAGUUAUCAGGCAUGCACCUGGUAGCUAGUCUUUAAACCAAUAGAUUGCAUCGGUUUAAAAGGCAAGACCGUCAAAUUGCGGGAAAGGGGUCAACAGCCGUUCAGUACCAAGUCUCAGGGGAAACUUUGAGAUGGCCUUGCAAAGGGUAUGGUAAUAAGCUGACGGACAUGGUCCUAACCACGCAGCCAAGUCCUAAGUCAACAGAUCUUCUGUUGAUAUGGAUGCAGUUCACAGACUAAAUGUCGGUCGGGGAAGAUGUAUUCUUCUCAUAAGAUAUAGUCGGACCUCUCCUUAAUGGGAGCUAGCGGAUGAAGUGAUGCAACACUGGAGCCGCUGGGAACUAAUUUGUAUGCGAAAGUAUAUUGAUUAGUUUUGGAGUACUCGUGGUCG;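 also: selection with 25 µg/mL kanamycin versus none on LB agar overnight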
- assayContext: 30 °C
Returns one of condition met or condition not met; condition met when self-splicing fitness (ln) is >= -2.

Study these solved cases before continuing.
[
  {
    "sequenceChain": "GGAAAGCAAUAUUACGUCGU",
    "assignedLabel": "condition met"
  },
  {
    "sequenceChain": "UCCUAGCAAUAUUACGAUGA",
    "assignedLabel": "condition met"
  },
  {
    "sequenceChain": "UAUAAGCAAUAUUACGGGUG",
    "assignedLabel": "condition met"
  },
  {
    "sequenceChain": "UCGGAGCAAUAUUACGUGGA",
    "assignedLabel": "condition met"
  },
  {
    "sequenceChain": "CUUAAGCAAUAUUACGCUAA",
    "assignedLabel": "condition not met"
  },
  {
    "sequenceChain": "AUUCAGCAAUAUUACGCUGG",
    "assignedLabel": "condition not met"
  }
]

// query Form field: self-splicing fitness (ln) at least -2? Entry: "AUAUAGCAAUAUUACGGACG"
// result condition not met

// query Please answer likewise for "GAUUAGCAAUAUUACGUUAU"
// result condition not met

// query Please answer likewise for "CGCGAGCAAUAUUACGCGAA"
// result condition not met

// query Please answer likewise for "GUUAAGCAAUAUUACGGGAC"
// result condition met

// query Please answer likewise for "UUCGAGCAAUAUUACGCAUG"
// result condition met

// query Please answer likewise for "CGUGAGCAAUAUUACGAGUG"
// result condition met

// query Please answer likewise for "GUAUAGCAAUAUUACGCGCA"
// result condition met

// query Please answer likewise for "GGCGAGCAAUAUUACGAACG"
// result condition met

* * *

- assayName: self-splicing fitness, log relative to wild type (ln ratio); higher = more splicing; Tetrahymena group I intron in knt gene, E. coli kanamycin selection, DiMSum; sequences stand for … in CUCUCU…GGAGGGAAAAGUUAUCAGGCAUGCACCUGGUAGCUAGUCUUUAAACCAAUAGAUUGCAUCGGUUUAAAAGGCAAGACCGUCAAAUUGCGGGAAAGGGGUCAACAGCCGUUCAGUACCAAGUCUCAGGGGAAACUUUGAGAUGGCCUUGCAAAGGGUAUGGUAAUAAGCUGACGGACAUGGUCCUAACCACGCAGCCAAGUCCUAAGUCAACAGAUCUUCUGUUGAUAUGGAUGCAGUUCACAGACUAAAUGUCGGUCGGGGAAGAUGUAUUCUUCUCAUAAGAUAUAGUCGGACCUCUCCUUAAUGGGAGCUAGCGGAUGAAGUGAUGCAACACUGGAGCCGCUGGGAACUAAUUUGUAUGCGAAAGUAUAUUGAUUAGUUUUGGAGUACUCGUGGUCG
- assayContext: 30 °C
Returns one of class 1 or class 0; class 1 when self-splicing fitness (ln) is >= -2.

Study these solved cases before continuing.
[
  {
    "sequenceChain": "GUCUAGCAAUAUUACGAGAA",
    "assignedLabel": "class 1"
  },
  {
    "sequenceChain": "GAUGAGCAAUAUUACGAAGG",
    "assignedLabel": "class 1"
  }
]

// query Form field: self-splicing fitness (ln) at least -2? Entry: "AGGUAGCAAUAUUACGUGAU"
// result class 0
